Measured Plant response rating, Soybean by item
- Test system: soybean (Glycine max)
- test.protocol: Test C pre/postemergence
- Type: in vivo
- cond: Postemergence, 250 g ai/ha; scale 0 to 100
- Description: […]
Lab note: write the figure by itself, no unit.

Known Plant response rating, Soybean results, listed for orientation:
1) CC(C)COC(=O)c1nc(C2CC2)nc(N)c1Br [Compound 17] = 100
2) CCOC(=O)c1nc(-c2ccc(Cl)cc2)nc(N)c1Br [Compound 37] = 95
3) COC(=O)CNc1nc(C2CC2)nc(C(=O)OC)c1Br [Compound 10] = 90

As a next step, examine the molecule that follows.
Report value: Plant response rating, Soybean, system: soybean (Glycine max), molecule: CN(C)N=Cc1nc(C2CC2)nc(N)c1Br [Compound 50]
100
